Assay: Ca2+ affinity by UV spectra during titration of EGTA or HEEDTA buffers
Format: binding
Conditions: after photolysis; 0.1-0.15M ionic strength, 20-23° C.; read-out: Kd (Ca2+), after photolysis
Method: The titration was done at 22° C. with 10 mL of 100 mM KCl, 10 mM K-MOPS, 10 mM K2 H.HEEDTA, and 14 […] diazo-2 as starting materials, adjusting the pH to 7.24, recording the spectrum, and then discarding 1.0 mL of this solution and replacing with 1.0 mL of 100 mM KCl, 10 mM K.MOPS, 10 mM KCa.HEEDTA, 14 μM diazo-2, readjusting the pH to 7.24, and recording the spectra, which was then in 9 mM K2H.HEEDTA. […]

# Smiles Notation, Kd [nM]
records = [
    ("[N-]=[N+]=CC(=O)c1ccc(N(CC(=O)O)CC(=O)O)c(OCCOc2cc(C(=O)C=[N+]=[N-])ccc2N(CC(=O)O)CC(=O)O)c1", 55),
    ("Cc1ccc(N(CC(=O)O)CC(=O)O)c(OCCOc2cc(C(=O)C=[N+]=[N-])ccc2N(CC(=O)O)CC(=O)O)c1", 73),
]

----------
assay: Mg2+ affinity in Mg/EGTA buffers; format: binding; settings: after photolysis; 0.1-0.15M ionic strength, pH 7.0-7.4, 20-23° C.; read-out: Kd (Mg2+), after photolysis
pKd: −log10 of the molar value.
Below: a set of entries, each annotated with reported pKd.
Readout Label: pKd

# Compound, Recorded Measurement
data = [
    ("[N-]=[N+]=CC(=O)c1ccc(N(CC(=O)O)CC(=O)O)c(OCCOc2cc(C(=O)C=[N+]=[N-])ccc2N(CC(=O)O)CC(=O)O)c1 [diazo-4]", 2.59),
    ("Cc1ccc(N(CC(=O)O)CC(=O)O)c(OCCOc2cc(C(=O)C=[N+]=[N-])ccc2N(CC(=O)O)CC(=O)O)c1 [diazo-2]", 2.47),
]

----------
assay: Mg2+ affinity in Mg/EGTA buffers; format: binding; details: before photolysis; 0.1-0.15M ionic strength, pH 7.0-7.4, 20-23° C.; read-out: Kd (Mg2+), before photolysis

# Smiles Notation, Display Unit, Kd
records = [
    ("Cc1ccc(N(CC(=O)O)CC(=O)O)c(OCCOc2cc(C(=O)C=[N+]=[N-])ccc2N(CC(=O)O)CC(=O)O)c1", "mM", 5.5),
]

----------
test: Ca2+ affinity by UV spectra during titration of EGTA or HEEDTA buffers; format: binding; conditions: after photolysis; 0.25M ionic strength (0.2M KCl, 0.05M NaCl), 18° C.
pKd: −log10 of the molar value.
Readout Label: pKd

# Compound, Recorded Measurement
rows = [
    ("Cc1ccc(N(CC(=O)O)CC(=O)O)c(OCCOc2cc(C(=O)C=[N+]=[N-])ccc2N(CC(=O)O)CC(=O)O)c1 [diazo-2]", 6.82),
]

----------
experiment: Ca2+ affinity by UV spectra during titration of EGTA or HEEDTA buffers; format: binding; settings: negligible affinity; pre- and post-photolysis; read-out: Kd (Ca2+)
pKd: −log10 of the molar value.

# Compound, pKd
data = [
    ("COc1cc(C(=O)C=[N+]=[N-])ccc1N(CC(=O)O)CC(=O)O [diazo-3]", "< 3.00"),
]
